Property: IC50; scope: individual molecules
target: UniProt P04585; assay: HIV-1 IN strand transfer assay (ELISA, pre-cleaved oligonucleotide substrate)
Number only, in µM; omit the unit.

Example cases with answers are listed next.
[[record]]
chemical_string = "Cc1cc(=O)c(O)c(C(=O)NCc2cc(F)cc(-c3ccccn3)c2)o1"
unit_annotation = "µM"
reported_result = 3.37

[[record]]
chemical_string = "Cc1cc(=O)c(O)c(C(=O)NCc2cccc(-n3cccc3)c2)o1"
unit_annotation = "µM"
reported_result = 17.5


Here is the next item to consider.
Q. Quick one: IC50 for Cc1nc(-c2cccc(CNC(=O)c3oc(C)cc(=O)c3O)c2)c[nH]1 ?
A. 4
